Target: T1, P2-AA
T1 chain: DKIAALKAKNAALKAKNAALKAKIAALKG
Assay: two-hybrid library CCmax;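 further: natural log of median RNA to DNA barcode read ratio; higher means stronger binding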
Conditions: mean of both orientations
recorded.endpoint: interaction score
Provide a numeric answer; units are not to be included.

Worked examples follow.
DEIAALEATNAALTATNAALTAEIAALEG [P1-AA-12HGe-T]    -0.397
DEIAALEAEYAALEAEYAALEAEIAALEG [P1-AA-12HAA-Y]    1.97
DEIAALEAEAAALEAENAALEAEIAALEG [P1-AA-1HAA-A]    2.29
DELAAEEAKNAALKAKLAAAKAEIAALEG [AP7-AA]    -1.94
DEIAALEARNAALRAENAALEAEIAALEG [P1-AA-1HGe-R]    1.49

Request: Bench note: what interaction score did DEIAALEAEVAALEAEVAALEAEIAALEG [P1-AA-12HAA-V] show?
Result: 2.1

Request: Similarly, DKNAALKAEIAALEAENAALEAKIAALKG [4H3606-AA] ?
Result: 0.917

Request: Similarly, DEIAALEASNAALSASNAALSAEIAALEG [P1-AA-12HGe-S] ?
Result: 0.744

Request: Similarly, DELAAIEAELAAEEAENAALEAEAAALEG [AP1-AA] ?
Result: 0.117

Request: Similarly, DEIAALEAEEAALEAENAALEAEIAALEG [P1-AA-1HAA-E] ?
Result: 1.82

meta.source: paper PMC10397247
